Values compiled from patent US20210355194A1.

Biological target: T1, COVID S1 RBM Fc fusion (Antigen 2) (SARS-CoV-2, UniProt P0DTC2 437-508)
T1 construct: domain: S1 RBM
Experiment: phage ELISA
quantity.name: specificity ELISA, fold over background (fold over background)

[
  {
    "binder": "variant 2-2 (antibody, V domains shown) VH: EVQLLESGGGLVQPGGSLRLSCAASGFTFSRHAMNWVRQAPGKGLEWVSGISGSGDETYYADSVKGRFTISRDNSKNTLYLQMNSLRAEDTAVYYCARDLPASYYDSSGYYWHNGMDVWGQGTLVTVSS VL: DIQMTQSPSSLSASVGDRVTITCRASQTINTYLNWYQQKPGKAPKLLIYSASTLQSGVPSRFSGSGSGTDFTLTISSLQPEDFATYYCQQSYSTFTFGQGTKVEIK",
    "test.result": 1.1
  },
  {
    "binder": "variant 2-8 (antibody, V domains shown) VH: EVQLLESGGGLVQPGGSLRLSCAASGFTFSDFAMAWVRQAPGKGLEWVSAISGSGDITYYADSVKGRFTISRDNSKNTLYLQMNSLRAEDTAVYYCAREADGLHSPWHFDLWGQGTLVTVSS VL: DIQMTQSPSSLSASVGDRVTITCRASQSIDTYLNWYQQKPGKAPKLLIYAASALASGVPSRFSGSGSGTDFTLTISSLQPEDFATYYCQQSYSAPPYTFGQGTKVEIK",
    "test.result": 1.1
  },
  {
    "binder": "variant 3-10 (antibody, V domains shown) VH: EVQLLESGGGLVQPGGSLRLSCAASGFTFRSHAMSWVRQAPGKGLEWVSSISGGGASTYYADSVKGRFTISRDNSKNTLYLQMNSLRAEDTAVYYCARVKYLTTSSGWPRPYFDNWGQGTLVTVSS VL: DIQMTQSPSSLSASVGDRVTITCRASQSIRKYLNWYQQKPGKAPKLLIYASSTLQRGVPSRFSGSGSGTDFTLTISSLQPEDFATYYCQQSLSTPFTFGGGTKVEIK",
    "test.result": 1.1
  },
  {
    "binder": "variant 2-9 (antibody, V domains shown) VH: EVQLLESGGGLVQPGGSLRLSCAASGFTFPRYAMSWVRQAPGKGLEWVSTISGSGSTTYYADSVKGRFTISRDNSKNTLYLQMNSLRAEDTAVYYCARLIDAFDIWGQGTLVTVSS VL: DIQMTQSPSSLSASVGDRVTITCRASQRIGTYLNWYQQKPGKAPKLLIYAASNLEGGVPSRFSGSGSGTDFTLTISSLQPEDFATYYCQQNYSTTWTFGQGTKVEIK",
    "test.result": 0.8
  },
  {
    "binder": "variant 2-4 (antibody, V domains shown) VH: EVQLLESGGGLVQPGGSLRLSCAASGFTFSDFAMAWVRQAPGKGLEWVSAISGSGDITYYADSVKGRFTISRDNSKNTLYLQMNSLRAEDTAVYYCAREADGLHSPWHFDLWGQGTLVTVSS VL: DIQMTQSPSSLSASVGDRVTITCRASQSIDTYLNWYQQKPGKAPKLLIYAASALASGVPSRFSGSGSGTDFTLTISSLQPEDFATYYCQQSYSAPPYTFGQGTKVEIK",
    "test.result": 1.2
  },
  {
    "binder": "variant 2-13 (antibody, V domains shown) VH: EVQLLESGGGLVQPGGSLRLSCAASGFTFSDYPMNWVRQAPGKGLEWVSAISGSGDNTYYADSVKGRFTISRDNSKNTLYLQMNSLRAEDTAVYYCVRHDEYSFDYWGQGTLVTVSS VL: DIQMTQSPSSLSASVGDRVTITCRASQSIDTYLNWYQQKPGKAPKLLIYGASALESGVPSRFSGSGSGTDFTLTISSLQPEDFATYYCQQSHSAPPYFFGQGTKVEIK",
    "test.result": 0.9
  }
]
